Answer each item with its documented IC50.
system: MCF7; test: Cytotoxicity against human MCF7 cells after 48 hrs by MTT assay; type: functional, cell-based; settings: MCF7, 48 h

Worked cases, IC50 given:
Q: Using the record for CC(=O)O[C@H]1C[C@@H]2C[C@@]3(C(=O)[C@]24CCC2=C(O4)[C@]45C[C@H]2C[C@H](OC(C)=O)[C@H]4[C@]2(C)[C@@H](OC(C)=O)C[C@H](O)C(C)(C)[C@H]2C(=O)[C@@H]5O)[C@@H]1[C@]1(C)[C@@H](OC(C)=O)C[C@H](O)C(C)(C)[C@H]1C(=O)[C@@H]3O , report its IC50.
A: > 10 µM

Q: And for COC[C@@]1(C[C@@H]2C(=O)[C@]34C[C@H]2C[C@H](OC(C)=O)[C@H]3[C@]2(C)[C@@H](OC(C)=O)C[C@H](O)C(C)(C)[C@H]2C(=O)[C@@H]4O)C(=O)[C@]23C[C@H]1C[C@H](OC(C)=O)[C@H]2[C@]1(C)[C@@H](OC(C)=O)C[C@H](O)C(C)(C)[C@H]1C(=O)[C@H]3O ?
A: > 10 µM

Now for the molecule whose IC50 we want.
Q: Using the record for CC(=O)O[C@H]1C[C@@H]2C[C@@]3(C(=O)[C@H]2C[C@]2(CO)C(=O)[C@]45C[C@H]2C[C@H](OC(C)=O)[C@H]4[C@]2(C)[C@@H](OC(C)=O)C[C@H](O)C(C)(C)[C@H]2C(=O)[C@@H]5O)[C@@H]1[C@]1(C)[C@@H](OC(C)=O)C[C@H](O)C(C)(C)[C@H]1C(=O)[C@@H]3O , report its IC50.
A: > 10 µM

====

Answer each item with its documented IC50.
experiment: Cytotoxicity against human HL60 cells after 48 hrs by MTT assay; type: functional, cell-based; conditions: HL-60, 48 h

Could you report IC50 for every entry in the following list?
1. CC(=O)O[C@H]1C[C@@H]2C[C@@]3(CC(=O)[C@@H]4C(C)(C)[C@@H](O)C[C@H](OC(C)=O)[C@@]4(C)[C@H]13)C(=O)[C@]21CC[C@@]12C(=O)[C@]13C[C@H]2C[C@H](OC(C)=O)[C@H]1[C@]1(C)[C@@H](OC(C)=O)C[C@H](O)C(C)(C)[C@H]1C(=O)[C@@H]3OC(C)=O
2. COC[C@@]1(C[C@@H]2C(=O)[C@]34C[C@H]2C[C@H](OC(C)=O)[C@H]3[C@]2(C)[C@@H](OC(C)=O)C[C@H](O)C(C)(C)[C@H]2C(=O)[C@@H]4O)C(=O)[C@]23C[C@H]1C[C@H](O)[C@H]2[C@@]1(C)[C@H](C(=O)[C@@H]3O)C(C)(C)[C@@H](O)C[C@@H]1O
3. CC(=O)O[C@H]1C[C@@H]2C[C@@]3(C(=O)[C@]24CCC2=C(O4)[C@@]45CC(=O)[C@@H]6C(C)(C)[C@@H](OC(C)=O)C[C@H](O)[C@@]6(C)[C@@H]4C(=O)C[C@@H]2C5)[C@@H]1[C@]1(C)[C@@H](OC(C)=O)C[C@H](O)C(C)(C)[C@H]1C(=O)[C@@H]3OC(C)=O

A:
> 10 µM
> 10 µM
> 10 µM

====

system: SMMC-7721; test: Cytotoxicity against human SMMC7721 cells after 48 hrs by MTT assay; assay type: functional, cell-based; conditions: SMMC-7721, 48 h
pIC50: −log10 of the molar value.
Answer each item with its documented pIC50.

Q: Using the record for COC[C@@]1(C[C@@H]2C(=O)[C@]34C[C@H]2C[C@H](OC(C)=O)[C@H]3[C@@]2(C)[C@H](C(=O)[C@@H]4O)C(C)(C)[C@@H](O)C[C@@H]2O)C(=O)[C@]23C[C@H]1C[C@H](OC(C)=O)[C@H]2[C@]1(C)[C@@H](OC(C)=O)C[C@H](O)C(C)(C)[C@H]1C(=O)[C@@H]3O , report its pIC50.
A: < 5.00

Now for the compound whose pIC50 we want.
Q: Using the record for CC(=O)O[C@H]1C[C@@H]2C[C@@]3(C(=O)[C@]24CCC2=C(O4)[C@]45C[C@H]2C[C@H](OC(C)=O)[C@H]4[C@]2(C)[C@@H](OC(C)=O)C[C@H](O)C(C)(C)[C@H]2C(=O)[C@@H]5O)[C@@H]1[C@]1(C)[C@@H](OC(C)=O)C[C@H](O)C(C)(C)[C@H]1C(=O)[C@@H]3O , report its pIC50.
A: < 5.00

====

tested on: SMMC-7721; experiment: Cytotoxicity against human SMMC7721 cells after 48 hrs by MTT assay; assay type: functional, cell-based; conditions: SMMC-7721, 48 h
Endpoint label: IC50

Could you report IC50 for every entry in the following list?
1. CC(=O)O[C@H]1C[C@@H]2C[C@@]3(C4=C2CC[C@@]2(O4)C(=O)[C@]45C[C@H]2C[C@H](OC(C)=O)[C@H]4[C@]2(C)[C@@H](OC(C)=O)C[C@H](O)C(C)(C)[C@H]2C(=O)[C@@H]5OC(C)=O)[C@@H]1[C@]1(C)[C@@H](OC(C)=O)C[C@H](OC(C)=O)C(C)(C)[C@H]1C(=O)[C@@H]3O
2. CC(=O)O[C@H]1C[C@@H]2C[C@@]3(C(=O)[C@H]2C[C@]2(CO)C(=O)[C@]45C[C@H]2C[C@H](OC(C)=O)[C@H]4[C@]2(C)[C@@H](OC(C)=O)C[C@H](O)C(C)(C)[C@H]2C(=O)[C@@H]5O)[C@@H]1[C@]1(C)[C@@H](OC(C)=O)C[C@H](O)C(C)(C)[C@H]1C(=O)[C@@H]3O
3. CC(=O)O[C@H]1C[C@@H]2C[C@@]3(C(=O)[C@]24CCC2=C(O4)[C@@]45CC(=O)[C@@H]6C(C)(C)[C@@H](OC(C)=O)C[C@H](O)[C@@]6(C)[C@@H]4C(=O)C[C@@H]2C5)[C@@H]1[C@]1(C)[C@@H](OC(C)=O)C[C@H](O)C(C)(C)[C@H]1C(=O)[C@@H]3OC(C)=O

A:
1: 9.9 µM; 2: > 10 µM; 3: > 10 µM

Could you report IC50 for every entry in the following list?
1. CC(=O)O[C@H]1C[C@@H]2C[C@@]3(C(=O)[C@]24CC[C@@]42C(=O)[C@]45C[C@H]2C[C@H](OC(C)=O)[C@H]4[C@]2(C)[C@@H](OC(C)=O)C[C@H](O)C(C)(C)[C@H]2C(=O)[C@@H]5O)[C@@H]1[C@]1(C)[C@@H](OC(C)=O)C[C@H](OC(C)=O)C(C)(C)[C@H]1C(=O)[C@@H]3OC(C)=O
2. COC[C@@]1(C[C@@H]2C(=O)[C@]34C[C@H]2C[C@H](OC(C)=O)[C@H]3[C@]2(C)[C@@H](OC(C)=O)C[C@H](O)C(C)(C)[C@H]2C(=O)[C@@H]4O)C(=O)[C@]23C[C@H]1C[C@H](OC(C)=O)[C@H]2[C@]1(C)[C@@H](OC(C)=O)C[C@H](O)C(C)(C)[C@H]1C(=O)[C@H]3O

A:
1. > 10 µM
2. > 10 µM

====

Answer each item with its documented IC50.
tested on: SMMC-7721; experiment: Cytotoxicity against human SMMC7721 cells after 48 hrs by MTT assay; format: functional, cell-based; details: SMMC-7721, 48 h

Worked cases, IC50 given:
Q: # value lookup — system SMMC-7721, readout IC50, item CC(=O)O[C@H]1C[C@@H]2C[C@@]3(C(=O)[C@]24CCC2=C(O4)[C@]45C[C@H]2C[C@H](OC(C)=O)[C@H]4[C@]2(C)[C@@H](OC(C)=O)C[C@H](O)C(C)(C)[C@H]2C(=O)[C@@H]5OC(C)=O)[C@@H]1[C@]1(C)[C@@H](OC(C)=O)C[C@H](OC(C)=O)C(C)(C)[C@H]1C(=O)[C@@H]3O
A: > 10 µM

Q: And for CC(=O)O[C@H]1C[C@@H]2C[C@@]3(CC(=O)[C@@H]4C(C)(C)[C@@H](O)C[C@H](OC(C)=O)[C@@]4(C)[C@H]13)C(=O)[C@]21CC[C@@]12C(=O)[C@]13C[C@H]2C[C@H](OC(C)=O)[C@H]1[C@]1(C)[C@@H](OC(C)=O)C[C@H](O)C(C)(C)[C@H]1C(=O)[C@@H]3OC(C)=O ?
A: > 10 µM

Q: And for CC(=O)O[C@H]1C(=O)[C@@]2(C)[C@H]([C@H](OC(=O)c3ccccc3)[C@]3(O)C[C@H](OC(=O)[C@H](O)[C@@H](NC(=O)c4ccccc4)c4ccccc4)C(C)=C1C3(C)C)[C@]1(OC(C)=O)CO[C@@H]1C[C@@H]2O ?
A: < 0.008 µM

Could you report IC50 for every entry in the following list?
1. COC[C@@]1(C[C@@H]2C(=O)[C@]34C[C@H]2C[C@H](OC(C)=O)[C@H]3[C@]2(C)[C@@H](OC(C)=O)C[C@H](O)C(C)(C)[C@H]2C(=O)[C@@H]4O)C(=O)[C@]23C[C@H]1C[C@H](OC(C)=O)[C@H]2[C@]1(C)[C@@H](OC(C)=O)C[C@H](O)C(C)(C)[C@H]1C(=O)[C@@H]3O
2. CC(=O)O[C@H]1C[C@@H]2C[C@@]3(C(=O)[C@]24CCC2=C(O4)[C@]45C[C@H]2C[C@H](OC(C)=O)[C@H]4[C@]2(C)[C@@H](OC(C)=O)C[C@H](O)C(C)(C)[C@H]2[C@@H](O)[C@@H]5O)[C@@H]1[C@]1(C)[C@@H](OC(C)=O)C[C@H](O)C(C)(C)[C@H]1[C@@H](O)[C@@H]3O
3. COC[C@@]1(C[C@@H]2C(=O)[C@]34C[C@H]2C[C@H](OC(C)=O)[C@H]3[C@]2(C)[C@@H](OC(C)=O)C[C@H](O)C(C)(C)[C@H]2C(=O)[C@@H]4O)C(=O)[C@]23C[C@H]1C[C@H](O)[C@H]2[C@@]1(C)[C@H](C(=O)[C@@H]3O)C(C)(C)[C@@H](O)C[C@@H]1O

A:
> 10 µM
> 10 µM
> 10 µM
